Test: Solubility in various solvents (sonicated at 25° C., centrifuged, filtered, HPLC)
Format: physicochemical
Details: organic solvent or mixture, thermodynamic from solid, solvent Methanol, read-out: Solubility (mg/mL at 25° C.)
# key: entry, value: solubility at 5 min
Give a bare numeral; the unit mg/mL is implied.

# molecule, readingUnit, measuredNumber
rows = [
    ("C[C@H]1CN(C2COC2)CCN1c1ccc(Nc2cc(Br)cn(C)c2=O)nc1 [Compound 180]", "mg/mL", 1.35),
]

Turning now to a further molecule:
Please look up its solubility at 5 min: C[C@H]1CN(C2COC2)CCN1c1ccc(N)nc1 [Compound 141]
221

###

Assay: Solubility in various solvents (sonicated at 25° C., centrifuged, filtered, HPLC)
Assay type: physicochemical
Settings: organic solvent or mixture, thermodynamic from solid, solvent Acetonitrile, read-out: Solubility (mg/mL at 25° C.)
attributeMeasured: solubility at 5 min
Answer format: number, then unit.

# querySmiles, solubility at 5 min
rows = [
    ("C[C@H]1CN(C2COC2)CCN1c1ccc(Nc2cc(Br)cn(C)c2=O)nc1", "2.3 mg/mL"),
]

# input for lookup
May I ask what solubility at 5 min has been recorded for C[C@H]1CN(C2COC2)CCN1c1ccc(N)nc1 ?
97.7 mg/mL

###

Experiment: Solubility in various solvents (sonicated at 25° C., centrifuged, filtered, HPLC)
Assay type: physicochemical
Details: organic solvent or mixture, thermodynamic from solid, solvent Tetrahydrofuran, read-out: Solubility (mg/mL at 25° C.)
attributeMeasured: solubility at 5 min (mg/mL)
API: value field is a number in mg/mL; no unit string.

# compound, measuredNumber
records = [
    ("C[C@H]1CN(C2COC2)CCN1c1ccc(N)nc1 [Compound 141]", 175),
]

We now examine a further compound.
Endpoint output: solubility at 5 min of C[C@H]1CN(C2COC2)CCN1c1ccc(Nc2cc(Br)cn(C)c2=O)nc1 [Compound 180] . Value?
24

###

Recorded solubility at 5 min by entry
Test: Solubility in various solvents (sonicated at 25° C., centrifuged, filtered, HPLC)
Type: physicochemical
Conditions: organic solvent or mixture, thermodynamic from solid, solvent Toluene, read-out: Solubility (mg/mL at 25° C.)
Note: unit mg/mL is implicit; provide only the numeric part.

# compound, readingUnit, solubility at 5 min
rows = [
    ("C[C@H]1CN(C2COC2)CCN1c1ccc(Nc2cc(Br)cn(C)c2=O)nc1 [Compound 180]", "mg/mL", 9.81),
]

Attention now turns to another entry.
For C[C@H]1CN(C2COC2)CCN1c1ccc(N)nc1 [Compound 141] , what is its reported solubility at 5 min?
20.6

###

Assay: Solubility in various solvents (sonicated at 25° C., centrifuged, filtered, HPLC)
Type: physicochemical
Settings: organic solvent or mixture, thermodynamic from solid, solvent tert-Butyl methyl ether, read-out: Solubility (mg/mL at 25° C.)
attributeMeasured: solubility at 5 min (mg/mL)
# value in mg/mL; strip the unit string

# querySmiles, measuredNumber
rows = [
    ("C[C@H]1CN(C2COC2)CCN1c1ccc(N)nc1", 7.39),
]

Would you mind telling me what solubility at 5 min value was observed for C[C@H]1CN(C2COC2)CCN1c1ccc(Nc2cc(Br)cn(C)c2=O)nc1 ?
1.25

###

Recorded solubility at 5 min, one value per entry.
Assay: Solubility in various solvents (sonicated at 25° C., centrifuged, filtered, HPLC)
Assay type: physicochemical
Conditions: organic solvent or mixture, thermodynamic from solid, solvent Methyl tetrahydrofuran, read-out: Solubility (mg/mL at 25° C.)
The answer is to be given in mg/mL; state only the numeric part.

# querySmiles, readingUnit, solubility at 5 min
data = [
    ("C[C@H]1CN(C2COC2)CCN1c1ccc(Nc2cc(Br)cn(C)c2=O)nc1", "mg/mL", 7.19),
]

Attention now turns to another entry.
// returns reported solubility at 5 min for input C[C@H]1CN(C2COC2)CCN1c1ccc(N)nc1
83

Taken from patent US10882864B2.
